# System: Schistosoma mansoni schistosomula (NMRI);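 further: visual microscopic scoring of shape, motility and density changes versus 0.5% DMSO solvent controls, one point per descriptor, degeneracy or death scored 4, mean of duplicate wells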
# protocol: phenotypic severity score (0-4); higher = more antischistosomal effect, active = 2 or more
# condition.set: 24 h; 10 µM
Possible outcomes: active, inactive

O=C(c1ccc(F)cc1)N(CCNc1ccccc1)c1ccccc1	inactive
Cc1cc(O)nc(-n2nc(C)cc2C)n1	inactive
Cc1cc(Cl)c(S(=O)(=O)N2CCCC2)cc1OCC(=O)NC1CCCCC1	inactive
CN1CCCN(C(c2ccccc2)c2ccc(Cl)cc2)CC1 (configuration not stated)	inactive
N#Cc1nc(-c2ccccc2)oc1S(=O)(=O)c1ccc(Cl)cc1	inactive
CCS(=O)(=O)N(Cc1ccco1)Cc1cc2ccc(C)cc2nc1O	inactive
CNC1C(OC2C(OC3C(O)C(O)C(NC(=N)N)C(O)C3NC(=N)N)OC(C)C2(O)C=O)OC(CO)C(O)C1O (configuration not stated)	inactive
Cc1cc(Cl)ccc1NC(=O)CCc1ccc(S(=O)(=O)NCC(C)C)cc1	inactive
CCc1cc(=O)n(C)c(SC(C)C(=O)Nc2ccc(F)cc2)n1 (configuration not stated)	inactive
Cc1ccc(NC(=O)CC2COc3ccccc3O2)cc1Cl (configuration not stated)	inactive
CNC(=O)c1cc(S(=O)(=O)N2CCN(c3ccccn3)CC2)cs1	inactive
Cc1nn(C(=O)Nc2cccc(C(F)(F)F)c2)c(C)c1Sc1ncccn1	inactive
CNc1cc(C)nc(C2CN(C(=O)c3n[nH]c4ccccc34)CCO2)c1 (configuration not stated)	inactive
c1ccc(Oc2ccc(-c3cc(N4CCNCC4)[nH]n3)cc2)cc1	active
NCC(=O)N1CCn2c(nc(-c3ccccc3)c2Nc2ccc3c(c2)OCO3)C1	inactive
CC1COC2(CCN(c3nc(=O)c4cc(C(F)(F)F)cc([N+](=O)[O-])c4s3)CC2)O1 (configuration not stated)	inactive
O=C(C1CCN(c2nnnn2-c2ccccc2)CC1)N1CCc2ccccc2C1	inactive
Cc1nn(C)cc1C(C)Nc1nncc(-c2ccc(C(F)(F)F)cc2)n1 (configuration not stated)	inactive
CC(C)(C)C1CCC(CC2=C(O)C(=O)c3ccccc3C2=O)CC1 (configuration not stated)	active
CC1=Nc2ccc(Cl)cc2C(c2ccccc2)N1CCNC(=O)CN(C)C (configuration not stated)	inactive
Cc1nc(-c2ccccn2)nc(N(C)CCc2ccccc2)c1Cl	inactive
Cc1ccc(-c2cc(C(=O)Nc3cccnc3)c3cc(Br)ccc3n2)cc1	active
